assay-procedure: Half life in iv or po dosed monkey
Type: ADME, organism-based, Macaca mulatta
condition-set: rhesus monkey, in vivo

structure-smiles-string	half-life
CC#C[C@@H](CC(=O)O)c1ccc(OCc2cccc(-c3ccc(C(F)(F)F)cc3)c2)cc1	7.2 to 28 h

###

tested-system: Free fatty acid receptor 1 (Homo sapiens, UniProt O14842)
Sequence (O14842 whole entry): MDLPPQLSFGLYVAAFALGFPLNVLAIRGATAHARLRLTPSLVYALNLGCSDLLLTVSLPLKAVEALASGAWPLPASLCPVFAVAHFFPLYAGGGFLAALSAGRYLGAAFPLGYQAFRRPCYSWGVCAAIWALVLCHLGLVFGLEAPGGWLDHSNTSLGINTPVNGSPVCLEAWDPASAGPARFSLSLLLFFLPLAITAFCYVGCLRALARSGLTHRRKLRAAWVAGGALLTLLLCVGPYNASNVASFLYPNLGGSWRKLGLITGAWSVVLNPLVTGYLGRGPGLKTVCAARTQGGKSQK
assay-procedure: Agonist activity at human GPR40 expressed in CHOK cells assessed as increase in intracellular Ca2+ flux by Fluo-4 based assay
Format: functional, cell-based
pEC50: −log10 of the molar value.
attribute-measured: pEC50

molecule	tested-system	attribute-measured	observed-value
CO/N=C(\COc1ccc(COc2ccc(C(C#N)CC(=O)O)cc2)cc1)c1ccc(F)cc1 (stereo unspecified)	Free fatty acid receptor 1 (Homo sapiens, UniProt O14842)	pEC50	> 8.00
